B1: Homeobox protein cut-like 2, residues 895 to 963; numbered along this chain, O14529 (parent)
chain: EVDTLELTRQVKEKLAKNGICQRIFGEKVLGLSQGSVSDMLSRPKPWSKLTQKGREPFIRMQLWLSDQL

- Variants of: B1
- experiment_notes: abundance fitness (aPCA) (normalised: wild type 0, dead -1); higher = more abundant; growth selection in yeast, the domain comes from the species named
- measurement_context: Homo sapiens
abundance fitness reference

The examples below pair each entry with its known result.
| mutant_id | abundance fitness |
| --- | --- |
| K45F | -0.243 |
| R55Q | -0.303 |
| P57F | -0.028 |
| W64K | -0.899 |
| V2R | -0.041 |
| S36E | 0.152 |
| K14M | 0.066 |
| D3R | -0.316 |
| L69Q | -0.092 |
| I24G | -0.347 |

Req: Need abundance fitness of T8E , thanks.
Resp: -0.242

Req: Can you handle E13H next?
Resp: -0.155

Req: Can you handle Q34C next?
Resp: -0.262

Req: Can you handle Q62H next?
Resp: -0.127

Req: Can you handle G31R next?
Resp: -0.107
